The entries below come with measured Plant response rating (scale 0 to 100), Corn values attached.
Tested on: corn (Zea mays)
Assay: Test D pre-/postemergence plant response
Type: in vivo
Conditions: Preemergence, 125 g ai/ha
From the text: […]
Enter the number alone.

smilesRepresentation: Cc1cc(-c2ccccc2Oc2ncc(Cl)cn2)no1
experimentalValue: 5

**Q:** What Plant response rating (scale 0 to 100), Corn value was documented for this compound, Fc1ccc(Oc2ncc(Cl)cn2)c(-c2cc(C(F)F)on2)c1F ?
**A:** 40

**Q:** What Plant response rating (scale 0 to 100), Corn value was documented for this compound, Clc1cnc(Oc2ccccc2-c2cc(C3CC3)on2)nc1 ?
**A:** 5

**Q:** What Plant response rating (scale 0 to 100), Corn value was documented for this compound, N#Cc1cccc(Oc2ncc(Cl)cn2)c1-c1cc(C(F)F)on1 ?
**A:** 30
